Data provenance: ChEMBL document CHEMBL1144944

# log10(Ki) measurements, system: Coagulation factor X (Homo sapiens)
# Sequence (P00742 41-179 limits assumed): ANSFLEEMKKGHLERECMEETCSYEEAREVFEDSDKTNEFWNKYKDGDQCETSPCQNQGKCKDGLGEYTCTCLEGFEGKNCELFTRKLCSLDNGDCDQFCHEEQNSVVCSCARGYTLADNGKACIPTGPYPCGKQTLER
# Sequence (P00742 235-488 limits assumed): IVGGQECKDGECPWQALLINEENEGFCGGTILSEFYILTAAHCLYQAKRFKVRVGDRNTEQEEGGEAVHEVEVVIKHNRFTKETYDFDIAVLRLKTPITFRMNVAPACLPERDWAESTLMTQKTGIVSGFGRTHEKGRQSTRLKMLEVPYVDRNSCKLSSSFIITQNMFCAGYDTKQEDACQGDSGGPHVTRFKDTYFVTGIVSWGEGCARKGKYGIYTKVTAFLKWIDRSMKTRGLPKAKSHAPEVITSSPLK
measurement kind: log10(Ki) (log10 of the value in nM)

given smiles | tgt | log10(Ki)
O=C1CN(S(=O)(=O)c2cc3ccc(Cl)cc3s2)CCN1Cc1cc2cnccc2o1 | Coagulation factor X (Homo sapiens) | 3.09
O=C1CN(S(=O)(=O)c2cc3ncc(Cl)cc3s2)CCN1Cc1cc2c[nH]ccc-2n1 | Coagulation factor X (Homo sapiens) | 3.08
NC(=O)Cn1c(CN2CCN(S(=O)(=O)c3cc4ccc(Cl)cc4s3)CC2=O)cc2cnccc21 | Coagulation factor X (Homo sapiens) | 0.90
O=C1CN(S(=O)(=O)c2cc3ccc(Br)cc3s2)CCN1Cc1cc2c[nH]ccc-2n1 | Coagulation factor X (Homo sapiens) | 0.48
Cn1c(CN2CCN(S(=O)(=O)c3cc4ccc(Cl)cc4s3)CC2=O)cc2cnccc21 | Coagulation factor X (Homo sapiens) | 0.48
O=C1CN(S(=O)(=O)/C=C/c2ccc(Cl)cc2)CCN1Cc1cc2c[nH]ccc-2n1 | Coagulation factor X (Homo sapiens) | 1.68
